# Lookup of reported absorption maximum keyed by entry
- METHOD: solvent given as SMILES
- RUN PARAMETERS: in ClC(Cl)Cl

[
  {
    "COMPOUND": "CN(C)c1ccc2cc(C3=[O+][B-](F)(F)OC(c4ccc(C#N)cc4)=C3)ccc2c1",
    "absorption maximum": "532 nm"
  },
  {
    "COMPOUND": "CCOC(=O)CSc1nc(-c2ccccc2)c(C)c(C#N)c1C#N",
    "absorption maximum": "376 nm"
  },
  {
    "COMPOUND": "O=C1O/C(=C2/C(=O)Oc3ccccc32)C(O)=C1c1ccccc1",
    "absorption maximum": "388 nm"
  },
  {
    "COMPOUND": "COc1cc(OC)c2cc(-c3ccc(-c4cc5c(OC)cc(OC)cc5oc4=O)cc3)c(=O)oc2c1",
    "absorption maximum": "372 nm"
  },
  {
    "COMPOUND": "CCCCC(CC)CN1C(=O)c2cccc3c(C#Cc4ccc(N(c5ccccc5)c5ccccc5)cc4)ccc(c23)C1=O (stereo not given)",
    "absorption maximum": "450 nm"
  }
]

###

- METHOD: solvent given as SMILES
- RUN PARAMETERS: in C1CCCCC1
Each entry below carries its reported absorption maximum.

[
  {
    "COMPOUND STRING": "N#Cc1c(-c2ccccc2)cc(N2c3ccccc3Oc3ccccc32)cc1-c1ccccc1",
    "absorption maximum (nm)": 398
  },
  {
    "COMPOUND STRING": "Clc1ccc(/C=C(\\c2ccccc2)c2nc3ccccc3o2)cc1",
    "absorption maximum (nm)": 330
  },
  {
    "COMPOUND STRING": "CN(C)CCNc1ccc([N+](=O)[O-])cc1[N+](=O)[O-]",
    "absorption maximum (nm)": 334
  },
  {
    "COMPOUND STRING": "Nc1ccc2cn[nH]c2c1",
    "absorption maximum (nm)": 296
  },
  {
    "COMPOUND STRING": "F[B-]1(F)N(c2ccccc2)C=Cc2cccc[n+]21",
    "absorption maximum (nm)": 442
  },
  {
    "COMPOUND STRING": "CCCCCCC(CCCCCC)n1c(=O)c2c3ccc4cccc5c6cccc7ccc(c2c1=O)c(c76)c3c45",
    "absorption maximum (nm)": 335
  },
  {
    "COMPOUND STRING": "C#CCNC1=C2C=C(c3cc4n(c3)[B-](F)(F)[N+]3=CC=CC3=C4c3c(C)cc(C)cc3C)C(C)=[N+]2[B-](F)(F)n2c(C)ccc21",
    "absorption maximum (nm)": 568
  }
]

###

# key: entry, value: absorption maximum
- METHOD: solvent given as SMILES
- RUN PARAMETERS: in Cc1ccccc1

[
  {
    "COMPOUND STRING": "N#Cc1ccc(N2c3ccccc3C(c3ccccc3)(c3ccccc3)c3ccccc32)cc1",
    "absorption maximum": "352 nm"
  },
  {
    "COMPOUND STRING": "Cn1nc(-c2ccccc2)c2n[nH]nc2/c1=N\\c1ccccn1",
    "absorption maximum": "410 nm"
  },
  {
    "COMPOUND STRING": "O=S(=O)(c1ccc(-c2ccc3c(c2)c2ccccc2n3-c2ccccc2)cc1)c1ccc(-c2ccc3c(c2)c2ccccc2n3-c2ccccc2)cc1",
    "absorption maximum": "332 nm"
  },
  {
    "COMPOUND STRING": "Cc1cc(N2c3ccccc3C(C)(C)c3ccccc32)ccc1-c1cc(-c2ccc(N3c4ccccc4C(C)(C)c4ccccc43)cc2C)ncn1",
    "absorption maximum": "375.94 nm"
  }
]

###

- METHOD: solvent given as SMILES
- RUN PARAMETERS: in Cc1ccccc1
absorption maximum vs 400 nm: at or above is Fulfilled, below is Not fulfilled.

[
  {
    "COMPOUND STRING": "O=C(c1ccc(-n2c3ccc(-c4ccccc4)cc3c3cc(-c4ccccc4)ccc32)cc1)c1ccc(-n2c3ccc(-c4ccccc4)cc3c3cc(-c4ccccc4)ccc32)cc1",
    "ASSIGNED CLASS": "Not fulfilled"
  },
  {
    "COMPOUND STRING": "OCCSc1cccc2[n+]1[B-](F)(F)n1c(c3cccc4cccc1c43)=N2",
    "ASSIGNED CLASS": "Fulfilled"
  },
  {
    "COMPOUND STRING": "Oc1ccc(/N=C/c2ccccc2Oc2ccccc2)cc1",
    "ASSIGNED CLASS": "Not fulfilled"
  },
  {
    "COMPOUND STRING": "O=c1c2ccccc2n2c3ccccc3c(=O)c3cccc1c32",
    "ASSIGNED CLASS": "Fulfilled"
  }
]

###

- METHOD: solvent given as SMILES
- RUN PARAMETERS: in CC#N
Attribute: absorption maximum

[
  {
    "COMPOUND": "C#CC1CN2CCC1CC2[C@@H](O)c1ccnc2ccc(OC)cc12 (some centres undefined)",
    "U": "nm",
    "absorption maximum": 332
  },
  {
    "COMPOUND": "Oc1ccccc1-c1nc(-c2ccccc2)c2ccccn12",
    "U": "nm",
    "absorption maximum": 343
  },
  {
    "COMPOUND": "N#C/C(=C\\c1ccncc1)c1nc(-c2ccc(Cl)cc2)cs1",
    "U": "nm",
    "absorption maximum": 357
  },
  {
    "COMPOUND": "COc1ccc(-c2csc(/C(C#N)=C/c3ccc(Cl)cc3)n2)cc1",
    "U": "nm",
    "absorption maximum": 376
  },
  {
    "COMPOUND": "N#C/C(=C\\c1ccc(C#N)cc1)c1nc(-c2ccccc2)c(-c2ccccc2)s1",
    "U": "nm",
    "absorption maximum": 379
  },
  {
    "COMPOUND": "Cc1c2ccccc2c(C2=C3C=CC=[N+]3[B-](F)(F)n3cccc32)c2ccccc12",
    "U": "nm",
    "absorption maximum": 502
  },
  {
    "COMPOUND": "C[n+]1cc2ccc3c[n+](C)cc4ccc(c1)c2c34",
    "U": "nm",
    "absorption maximum": 418
  },
  {
    "COMPOUND": "CCC1=C(C)C2=C(c3cc(C(=O)Cl)cc(C4=C5C(C)=C(CC)C(C)=[N+]5[B-](F)(F)n5c(C)c(CC)c(C)c54)c3)c3c(C)c(CC)c(C)n3[B-](F)(F)[N+]2=C1C",
    "U": "nm",
    "absorption maximum": 527
  },
  {
    "COMPOUND": "CCCCC1=Cc2c3ccc4cccc5ccc(c6cc(-c7ccccc7)n(c26)P1(=O)c1ccccc1)c3c45 (centres undefined)",
    "U": "nm",
    "absorption maximum": 426
  }
]

###

- METHOD: solvent given as SMILES
- RUN PARAMETERS: in C1CCCCC1

[
  {
    "COMPOUND STRING": "CN(C)c1ccc(C#Cc2ccc(-c3nc(C#N)c(C#N)n3C)cc2)cc1",
    "U": "nm",
    "absorption maximum": 372
  },
  {
    "COMPOUND STRING": "c1ccc2cc(-n3c4ccccc4c4ccccc43)ccc2c1",
    "U": "nm",
    "absorption maximum": 318
  },
  {
    "COMPOUND STRING": "O=C1c2ccccc2-c2ccccc21",
    "U": "nm",
    "absorption maximum": 382
  },
  {
    "COMPOUND STRING": "O=C1Nc2ccccc2/C1=C/C(=O)c1ccc(O)cc1",
    "U": "nm",
    "absorption maximum": 333
  },
  {
    "COMPOUND STRING": "C#Cc1cccc2ccccc12",
    "U": "nm",
    "absorption maximum": 310
  },
  {
    "COMPOUND STRING": "COc1ccc(-c2ccc(-c3ccc(OC)cc3)cc2)cc1",
    "U": "nm",
    "absorption maximum": 293
  },
  {
    "COMPOUND STRING": "CCC1=C(C)C(=O)n2c1cc1[nH]c(C(=O)OC(C)(C)C)c(C)c1c2=O",
    "U": "nm",
    "absorption maximum": 392
  },
  {
    "COMPOUND STRING": "C[Si](C)(C)c1cccc2ccccc12",
    "U": "nm",
    "absorption maximum": 294
  },
  {
    "COMPOUND STRING": "CC1=[N+]2C(=C(c3ccc(N(c4ccccc4)c4ccccc4)cc3)c3ccc(C)n3[B-]2(F)F)C=C1c1cc2n(c1)[B-](F)(F)[N+]1=CC=CC1=C2c1c(C)cc(C)cc1C",
    "U": "nm",
    "absorption maximum": 593
  },
  {
    "COMPOUND STRING": "Oc1ccccc1/N=C/c1ccccc1Oc1ccccc1",
    "U": "nm",
    "absorption maximum": 353
  },
  {
    "COMPOUND STRING": "CC1(C)c2ccccc2N(c2ccc3c(ccc4nc5ccc6cc(N7c8ccccc8C(C)(C)c8ccccc87)ccc6c5nc43)c2)c2ccccc21",
    "U": "nm",
    "absorption maximum": 413
  },
  {
    "COMPOUND STRING": "Cc1ccc(/C=C/c2ccccc2-[n+]2noc([O-])c2C)cc1",
    "U": "nm",
    "absorption maximum": 314
  },
  {
    "COMPOUND STRING": "CC(C)CCCCN1CCc2c1ccc1c3c(ccc21)C(=O)CCC3",
    "U": "nm",
    "absorption maximum": 362
  },
  {
    "COMPOUND STRING": "CN(C)c1cc(C#N)c(N(C)C)c(C#N)c1",
    "U": "nm",
    "absorption maximum": 387.45
  },
  {
    "COMPOUND STRING": "C/C(=C\\c1ccc(Cl)cc1)c1nc2ccccc2o1",
    "U": "nm",
    "absorption maximum": 320
  },
  {
    "COMPOUND STRING": "CCOC(=O)CCOc1ccc(C(c2c(C)[nH]c3ccccc23)c2c(C)[nH]c3ccccc23)cc1OC",
    "U": "nm",
    "absorption maximum": 291
  },
  {
    "COMPOUND STRING": "CC1(C)Cc2c(c3ccccc3c3nc4c(nc23)c2c(c3ccccc34)OC(C)(C)C2)O1",
    "U": "nm",
    "absorption maximum": 451.06
  },
  {
    "COMPOUND STRING": "COc1ccc(-c2ccc(-c3ccc(C#N)cc3)cc2)cc1",
    "U": "nm",
    "absorption maximum": 305
  },
  {
    "COMPOUND STRING": "COc1c2ccccc2c(OC)c2c1c1cc(F)ccc1n2C",
    "U": "nm",
    "absorption maximum": 415
  },
  {
    "COMPOUND STRING": "Oc1ccccc1-c1nc(-c2ccccc2)c2ccccn12",
    "U": "nm",
    "absorption maximum": 340
  },
  {
    "COMPOUND STRING": "CC(=O)c1c2c(cc3ccc(N(C)C)cc13)CCC2",
    "U": "nm",
    "absorption maximum": 373
  },
  {
    "COMPOUND STRING": "c1ccc(-c2nn(-c3ccccc3)c3nc4ccccc4cc23)cc1",
    "U": "nm",
    "absorption maximum": 401.45
  },
  {
    "COMPOUND STRING": "CNc1cccc2c1C(=O)c1ccccc1C2=O",
    "U": "nm",
    "absorption maximum": 488
  }
]
